# System: MS2 coat protein
# TEST_NAME: apparent Kd, MS2 coat protein; higher = weaker binding; RNA-MaP array; FMN 200 µM where present
# MEASUREMENT_CONTEXT: designed as: ON switch for flavin mononucleotide; no ligand
Let's look at some sequences and their measured apparent Kd.
// note: answer is a bare numeric in µM

RESIDUE_CODES	UNIT	apparent Kd
CGAAGUCCGUAGAAGGGUGACAUGAGGAUCACCCAUGUGCGAGCCGUGGGAGUCAGCGGCUCGCCACAGGAUAUACGGAGCACG	µM	0.0306

// fetch apparent Kd given entry `GUAGCAUACCGAGGAUAUUCAUAUCGGAAACGAACAUGAGGAUCACCCAUGUGGCGAAAGCCUUGGGAGAAGGCGGAAUGCUAC`
0.589

Give the value of apparent Kd reported for the following: `CGCUACUACCAGAAGGACAUGAGGAUCACCCAUGUAGGAUAUGGGUUACACGUUCCUGUGUUUUGUUACUACGCUACGUAUGCG`
0.621

Tell me its apparent Kd given `UGGUACUAGGGAGGAUAUGGGAAGAUACAUGAGGAUCACCCAUGUUUCAGAAUGCCGAGAGGCAACUAGAAGGCCCUAGUACCU` as the entry.
0.0597

Write down apparent Kd measured for item `UGUUAUUAGACAGGAUAUUGAAUGUUAAGUAUUAACAUGAGGAUCACCCAUGUAUUUCAUUCGUACAAGAAGGGUCAUGUUCCU`
0.166

Give me measured apparent Kd, please, for this sequence: `UGUGUUAUCGGAGGAUAUCGAUAUCAAACAUGAGGAUCACCCAUGUUGAGGAUCACACAUGUCCACGAGAAGGCCGACGUAGUG`
0.00712

Read the entry `UGGUCAUCAUCAGGAUAUUAACAUGGGCUACAUUAAGAAGGGAUAGUGAGAUACGAACUGAACGCACAUGAGGAUCACCCAUGU` and write its reported apparent Kd.
0.0396

* * *

# maps each entry to its apparent Kd
# System: MS2 coat protein
# TEST_NAME: apparent Kd, MS2 coat protein; higher = weaker binding; RNA-MaP array
# MEASUREMENT_CONTEXT: ligand present: flavin mononucleotide; designed as: ON switch for flavin mononucleotide
Use nM as the unit, but write only the number.

Sample records with apparent Kd:
RESIDUE_CODES	UNIT	apparent Kd
CCUGUAGACCCGACAUGAGGAUCACCCAUGUGUAGUUAUGGUAGAAGGUCGUACUGAACACACUCGAAGGAUAUACCCUUAUAC	nM	13.3
CCGUGGCAUCAACAGGAUAUGCUAUCAAAGACAUGAGGAUCACCCAUGUGGGUAUAUUACUUCCGGCAGAAGGGUUUAAGGGUUAC	nM	28.9
GUGCUGAAUACGUAGGAUAUAGUGUGUGCGACAUGAGGAUCACCCAUGUAAAUUGCCCAUCAGAGCUAGAAGGACGAAUCUUCGUG	nM	8.78

For the next question, use this sequence.
Query apparent Kd for `CACGCCAGAUCUCAGGAUAUCCCACAUCAAACAUGAGGAUCACCCAUGUGACAUAUAUAGAACAUGGAGAAGGGAGCACAUGCGGC`
113

* * *

Parameter apparent Kd: see the listing below.
# Tested on: MS2 coat protein
# TEST_NAME: apparent Kd, MS2 coat protein; higher = weaker binding; RNA-MaP array; FMN 200 µM where present
# MEASUREMENT_CONTEXT: ligand present: flavin mononucleotide; designed as: OFF switch for flavin mononucleotide
Provide the reading as a plain figure in nM.

RESIDUE_CODES	SYSTEM	UNIT	RECORDED_MEASUREMENT
GAGACGUCAGGAUAUCUGAUGUCUAACUUCGGUUAGACAUCAGAGAAGGGACAUGAGGAUCACCCAUGUCUCAA	MS2 coat protein	nM	12.1

# assay system MS2 coat protein: give apparent Kd of `CAGGACAGAGGAUAUACAUAGAUACAGAUUCAUGUAGAACUACAUGAGGAUCACCCAUGUAGAAGGCUGACCUG`
221

GET apparent Kd where system = MS2 coat protein and item = `GGCUGGUGAGCAGGAUAUGGUCGUGCCUUUGUUCGUGGUCCCACAUGAGGAUCACCCAUGUUCGACCAGAAGGGCUGACUUGAG`
18.9

GET apparent Kd where system = MS2 coat protein and item = `UCACGGGAUUGAGGAUAUAUAUUAAUUUUUACAAUAGAAGGCAAAUUUUUAGUUUUUUCACUUUACAUGAGGAUCACCCAUGUU`
25.5

Report the value of apparent Kd obtained on MS2 coat protein for `UUUUUGAAGCUUCGUCAAUACAGUUAGGAUAUGAGAGACAUGAGGAUCACCCAUGUGCAUGUUGAUUAGAAGGAACAACUAUCU` .
12.7

Check MS2 coat protein data and give apparent Kd for `AAGUAGGGAGGAUAUACAUAGAUACAGAUUCAUGUAGAACUACAUGAGGAUCACCCAUGUAGAAGGCCCUAAUA` .
193

Output reported apparent Kd of the sequence `CGCGUAUGAGGAUAUGCAUAAAAGGGUGCACUGAGUCUGAGACAUGAGGAUCACCCAUGUAGAAGGCGUGCGCU` on MS2 coat protein.
16

Print MS2 coat protein apparent Kd for `GUCAGCUCGUGAGGAUAUACAACACUGCAUCGGCAGUGUAUUAAGAUCACAUGAGGAUCACCCAUGUAGAAGGCACGAGCUGAU` .
246

Report apparent Kd under test system MS2 coat protein for `AUCAAUCGUGUAGGAUAUGCGUGGCGAAGCUAUGCAGAAGGACAUGAGGAUCACCCAUGUCUUUCUGUCUGUGUACAGACAGGA` .
71.5

Report value only: apparent Kd, MS2 coat protein, `AUGGUACAUGAGGAUCACCCAUGUUAGGAUAUCGCGUGUUCUAAAACUAAGAGAUACACGAGAAGGGACGACAU`
67.7

Return reported apparent Kd for target or system MS2 coat protein, item `GUGUAGUCAGGAUAUACAUAGGAAGAUAAUAUAAUAUAAGUACAUGAGGAUCACCCAUGUAGAAGGGACAGUGU` .
53.8

Report apparent Kd from MS2 coat protein testing of `CACUGCAAUGUAGGAUAUCGACUGGAAUACAGUCGAGAAGGACAUGAGGAUCACCCAUGUAAUCCUAAUAAUAAAUAAGCAGUG`
18.4
